The values you see were collected from ChEMBL document CHEMBL1153143.

assay: Selectivity index, ratio of CC50 for human MT2 cells to EC50 for HIV1 3B
Format: toxicity, cell-based
applied conditions: read-out: Ratio CC50/IC50
reported endpoint: selectivity ratio
Give bare numbers.

The examples below pair each entry with its known result.
Cc1ccc(C)n1-c1ccc(-c2ccc(C(=O)O)cc2)c(C(=O)O)c1
13.8
Cc1ccc(C)n1-c1ccc(-c2ccc(CCC(=O)O)cc2)c(C(=O)O)c1
27.4
Cc1ccc(-c2ccc(-n3c(C)ccc3C)cc2C(=O)O)cc1
15.4
Cc1ccc(C)n1-c1ccc(O)c(C(=O)O)c1
11.8

Now for the compound whose selectivity ratio we want.
The reported selectivity ratio of the compound Cc1ccc(C)n1-c1ccc(-c2ccccc2)c(C(=O)O)c1 was 16.3

====

Tested on: Human immunodeficiency virus 1
assay: Antiviral activity against HIV1 3B in human MT2 cells assessed as reduction of virus-induced cytopathogenicity
Assay type: functional, organism-based
applied conditions: Human immunodeficiency virus 1, 3B
Assign pIC50 to each entry below.
Numbers only, as −log10 of the molar value.

The examples below pair each entry with its known result.
Cc1ccc(-c2ccc(-n3c(C)ccc3C)cc2C(=O)O)cc1
4.10
Cc1ccc(C)n1-c1ccc(-c2ccc(/C=C/C(=O)O)cc2)c(C(=O)O)c1
5.11
Cc1ccc(C)n1-c1ccc(-c2ccc(C(=O)O)cc2)c(C(=O)O)c1
4.47
Cc1ccc(C)n1-c1ccc(-c2ccc(CCC(=O)O)cc2)c(C(=O)O)c1
4.88
Cc1ccc(C)n1-c1ccc(-c2ccccc2)c(C(=O)O)c1
4.42

Now for the compound whose pIC50 we want.
The reported pIC50 of the compound Cc1ccc(C)n1-c1ccc(O)c(C(=O)O)c1 was 4.26

====

Test system: MT2
assay: Cytotoxicity against human MT2 cells after 4 days by XTT assay
Assay type: cell-based
applied conditions: mt2, 96 h
Assign CC50 to each entry below.
Answer with the figure and its unit, nothing else.

Cc1ccc(C)n1-c1ccc(-c2ccc(CCC(=O)O)cc2)c(C(=O)O)c1
227 µM
Cc1ccc(C)n1-c1ccc(-c2ccccc2)c(C(=O)O)c1
290 µM

Can you give me CC50 for all of these, one by one?
1. Cc1ccc(C)n1-c1ccc(-c2ccc(/C=C/C(=O)O)cc2)c(C(=O)O)c1
2. Cc1ccc(C)n1-c1ccc(O)c(C(=O)O)c1
3. Cc1ccc(-c2ccc(-n3c(C)ccc3C)cc2C(=O)O)cc1

Solution:
255 µM
334 µM
280 µM

The reported CC50 of the compound Cc1ccc(C)n1-c1ccc(-c2ccc(C(=O)O)cc2)c(C(=O)O)c1 was 355 µM
